Catalogue of IC50 values
system: HeLa; test: Antiproliferative activity against human HeLa cells assessed as growth inhibition measured after 72 hrs by calcein AM dye-based fluorescence assay; assay type: functional, cell-based
measuredMetric: IC50 (µM)

molecule=CC(C)c1n[nH]c2c(NCc3ccc(-c4ccccn4)cc3)nc(SCCN)nc12 measuredmetric=IC50 recordednumber=0.017
molecule="CCc1cnn2c(NCc3ccc[n+]([O-])c3)cc(N3CCCC[C@H]3CCO)nc12 [DINACICLIB]" measuredmetric=IC50 recordednumber=0.013

====

target: Cyclin-dependent kinase 1/cyclin B1 (Homo sapiens, UniProt P06493); experiment: Inhibition of His-tagged CDK1/Cyclin-B1 (unknown origin) expressed in baculovirus infected Sf9 insect cells using histone H1 as substrate measured in presence of [gamma-33P]ATP
Sequence (P06493 whole entry): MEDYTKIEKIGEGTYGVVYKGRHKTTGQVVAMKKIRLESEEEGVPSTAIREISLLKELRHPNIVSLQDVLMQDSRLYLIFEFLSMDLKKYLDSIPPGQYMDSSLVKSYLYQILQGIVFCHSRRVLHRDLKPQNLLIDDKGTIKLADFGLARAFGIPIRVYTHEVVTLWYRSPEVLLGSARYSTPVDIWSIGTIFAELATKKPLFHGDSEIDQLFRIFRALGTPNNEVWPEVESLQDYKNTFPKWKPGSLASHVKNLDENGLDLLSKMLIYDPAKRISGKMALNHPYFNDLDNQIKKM
Sequence (P14635 whole entry, further chain): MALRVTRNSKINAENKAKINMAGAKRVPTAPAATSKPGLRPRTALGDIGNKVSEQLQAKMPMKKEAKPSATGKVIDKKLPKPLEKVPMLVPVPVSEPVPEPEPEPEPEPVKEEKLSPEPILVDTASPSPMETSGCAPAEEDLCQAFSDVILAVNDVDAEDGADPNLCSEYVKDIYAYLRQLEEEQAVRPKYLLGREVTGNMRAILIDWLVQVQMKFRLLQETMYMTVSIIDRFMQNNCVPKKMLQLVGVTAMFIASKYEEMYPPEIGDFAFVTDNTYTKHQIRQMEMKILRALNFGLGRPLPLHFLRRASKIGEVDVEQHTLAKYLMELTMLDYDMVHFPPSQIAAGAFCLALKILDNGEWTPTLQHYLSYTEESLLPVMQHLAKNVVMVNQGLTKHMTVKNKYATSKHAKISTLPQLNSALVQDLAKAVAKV
measuredMetric: IC50 (nM)

smi=CC(C)c1n[nH]c2c(NCc3ccc(-c4ccccn4)cc3)nc(SCCN)nc12 recordednumber=90

The reported numbers originate from ChEMBL document CHEMBL4385606.
